test-name: in vivo
details: male, rat, iv, 10 mg/kg
attribute-measured: half-life (h)
Give a bare numeral; the unit h is implied.

// known answers, use as guide
[[record]]
compound = "Cc1nnc(C(C)C)n1C1CC2CCC(C1)N2CC[C@H](NC(=O)C1CCC(F)(F)CC1)c1cccs1 (some centres unmarked)"
attribute_measured = "half-life"
result_value = 0.77

[[record]]
compound = "Cc1nnc(C(C)C)n1C1CC2CCC(C1)N2CC[C@H](NC(=O)C1CCCCC1)c1cccs1 (some centres unmarked)"
attribute_measured = "half-life"
result_value = 0.31

[[record]]
compound = "Cc1nnc(C(C)C)n1C1CCN(CC[C@H](NC(=O)C2CCCC2)c2cccs2)CC1"
attribute_measured = "half-life"
result_value = 2.22


Q. Recorded half-life for Cc1nnc(C(C)C)n1C1CC2CCC(C1)N2CC[C@H](NC(=O)C1CCCC1)c1cccs1 (some centres unmarked) , please?
A. 1.81

Q. Recorded half-life for Cc1nnc(C(C)C)n1C1CC2CCC(C1)N2CC[C@H](NC(=O)C1CCC(F)(F)CC1)c1ccsc1 (some centres unmarked) , please?
A. 1
